Target: GRK2 (βARK-1) (Homo sapiens, UniProt P25098)
Sequence (P25098 1-689): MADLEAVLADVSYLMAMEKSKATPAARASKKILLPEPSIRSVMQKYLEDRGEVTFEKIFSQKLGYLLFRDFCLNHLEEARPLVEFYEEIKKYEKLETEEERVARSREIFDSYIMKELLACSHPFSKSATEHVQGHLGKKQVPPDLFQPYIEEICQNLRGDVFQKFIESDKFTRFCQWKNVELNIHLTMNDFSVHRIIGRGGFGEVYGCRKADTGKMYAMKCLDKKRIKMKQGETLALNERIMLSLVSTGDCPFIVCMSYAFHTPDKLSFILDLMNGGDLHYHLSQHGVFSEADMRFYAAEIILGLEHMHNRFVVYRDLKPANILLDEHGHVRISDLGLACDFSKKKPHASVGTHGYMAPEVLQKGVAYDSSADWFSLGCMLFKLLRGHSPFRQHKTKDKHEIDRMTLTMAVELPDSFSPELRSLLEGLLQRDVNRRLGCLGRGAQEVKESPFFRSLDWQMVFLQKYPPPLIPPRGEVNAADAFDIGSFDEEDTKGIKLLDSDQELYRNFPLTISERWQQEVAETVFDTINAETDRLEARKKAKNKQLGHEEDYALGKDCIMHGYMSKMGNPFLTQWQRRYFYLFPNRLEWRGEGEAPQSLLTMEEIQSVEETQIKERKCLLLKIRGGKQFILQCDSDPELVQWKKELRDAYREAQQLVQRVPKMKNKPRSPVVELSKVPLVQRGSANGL
Assay: GRK2 (βARK-1) kinase assay: 33P phosphorylation of biotinylated bovine tubulin dimers, scintillation counting
Conditions: 100 nM GRK2 pre-incubated with inhibitor 30 min at room temperature; 250 nM tubulin, 3 μM ATP, [γ-33P]-ATP, 30 min reaction
pIC50: −log10 of the molar value.
measure: pIC50

[
  {
    "molecule": "Cn1cc(-c2cc(C(N)=O)nc3[nH]ncc23)c2cc(OCC3CCCNC3)ccc21 (stereo not shown)",
    "pIC50": 6.15
  }
]

I. Cn1cc(-c2cc(C(N)=O)nc3[nH]ncc23)c2ccccc21
II. Cn1cc(-c2cc(C(N)=O)nc3[nH]ncc23)c2cc(OCC(N)=O)ccc21
III. NC(=O)c1cc(-c2cccc(O)c2)c2cn[nH]c2n1
Exam item: Hey, quick one: sort these by pIC50, low to high? Note for the reader: the ranking is given by listing the labels in the order requested.
Marked response: III, I, II
